assay: chemical genetic growth profiling, strain panel (AID 1159580);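 also: tested at 20 µM; growth read once vehicle control cultures reached saturation at 30 °C; lower values mean less growth of the strain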; settings: S. cerevisiae deletion strains, growth OD, locus YGR078C, strain PAC10
Screen size: about 5,500 compounds; about 2,000 (36%) were called active. Not shown: some 18% with an inconclusive outcome. Rule as the data show it: active = normalized growth mostly below about 0.91 (no sharp cut-off); inconclusive = no clear call, values can overlap the other calls; inactive = mostly above about 0.92. This is one part of the list.
The categories you may choose from are active, inactive

# compound, class
rows = [
    ("ClC(Cl)=C(c1ccc(Cl)cc1)c1ccc(Cl)cc1", "inactive"),
    ("CCCCCn1c(Sc2ncc([N+](=O)[O-])s2)n[nH]c1=O", "active"),
    ("CN(C)CCC=C1c2ccccc2CCc2ccccc21", "inactive"),
    ("COC(=O)C1=C(C)NC(C)=C(C(=O)OCCN(C)Cc2ccccc2)C1c1cccc([N+](=O)[O-])c1 (centres undefined)", "inactive"),
    ("COC(=O)C1=C(C)NC(C)=C(C(=O)OC)C1c1ccccc1[N+](=O)[O-]", "inactive"),
]

QUERY: Please indicate how the test categorized COC(=O)C1=C(C)NC(C)=C([N+](=O)[O-])C1c1ccccc1C(F)(F)F (centres undefined) .
RESULT: inactive
